# TARGET UNDER TEST: JAK3 (Homo sapiens)
# Construct: purchased Carna Biosciences, Inc
# Sequence (P52333 whole entry): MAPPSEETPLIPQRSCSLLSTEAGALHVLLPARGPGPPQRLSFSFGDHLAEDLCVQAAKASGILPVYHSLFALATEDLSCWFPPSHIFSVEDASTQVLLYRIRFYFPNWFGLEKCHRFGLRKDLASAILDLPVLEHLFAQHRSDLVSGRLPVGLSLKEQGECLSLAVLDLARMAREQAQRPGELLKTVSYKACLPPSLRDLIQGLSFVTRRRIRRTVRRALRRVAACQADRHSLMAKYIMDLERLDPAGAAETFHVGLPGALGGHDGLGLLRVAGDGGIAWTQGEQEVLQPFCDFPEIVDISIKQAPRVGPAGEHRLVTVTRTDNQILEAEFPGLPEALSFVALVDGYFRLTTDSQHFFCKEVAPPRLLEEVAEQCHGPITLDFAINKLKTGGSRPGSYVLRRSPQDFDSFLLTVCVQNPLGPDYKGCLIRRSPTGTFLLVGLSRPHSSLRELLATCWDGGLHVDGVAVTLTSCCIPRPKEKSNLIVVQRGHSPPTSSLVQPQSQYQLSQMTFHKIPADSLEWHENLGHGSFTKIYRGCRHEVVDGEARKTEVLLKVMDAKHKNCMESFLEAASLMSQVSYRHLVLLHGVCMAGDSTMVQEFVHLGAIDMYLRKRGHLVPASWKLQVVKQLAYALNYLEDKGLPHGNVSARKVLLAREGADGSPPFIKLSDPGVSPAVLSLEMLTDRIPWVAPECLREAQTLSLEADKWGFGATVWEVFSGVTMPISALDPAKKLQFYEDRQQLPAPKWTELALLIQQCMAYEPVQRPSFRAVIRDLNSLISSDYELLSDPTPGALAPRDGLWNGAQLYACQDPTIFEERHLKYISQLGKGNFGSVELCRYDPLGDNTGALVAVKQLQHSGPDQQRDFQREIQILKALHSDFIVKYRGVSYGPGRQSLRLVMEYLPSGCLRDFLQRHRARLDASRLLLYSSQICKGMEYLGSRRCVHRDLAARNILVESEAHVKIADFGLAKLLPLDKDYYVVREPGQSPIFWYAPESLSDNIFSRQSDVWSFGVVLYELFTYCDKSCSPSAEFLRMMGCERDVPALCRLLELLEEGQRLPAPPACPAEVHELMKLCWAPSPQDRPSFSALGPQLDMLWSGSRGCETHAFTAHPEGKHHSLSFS
# TEST PROTOCOL: JAK tyrosine kinase inhibitory activity in the presence of 1 mM ATP (ELISA), JAK3
# Format: biochemical
The reader will find reported IC50 values listed item by item below.

O=C(NC1CCN(C(=O)c2cc(NCc3ccco3)nc(-c3cnn4ccsc34)n2)CC1)C1CC1 [Example 160]    > 10000 nM
COC(=O)NC1CCN(C(=O)c2cc(NC3CCCCC3)nc(-c3cnn4ccsc34)n2)CC1 [Example 180]    > 10000 nM

Please examine the following record next.
In: Field: IC50 (JAK3 (Homo sapiens)). Entry: CCC(CC)Oc1cc(C(=O)N2CCC(NC(=O)OC)CC2)nc(-c2cnn3ccsc23)n1 [Example 108]
Out: > 10000 nM
